Examples of molecules with documented Ratio Ki follow.
Organism: Rattus norvegicus
assay.info: Ratio of Ki for 5HT1A receptor in rat cortex membrane to Ki for alpha1 adrenoceptor in rat cortex membrane
Type: cell membranes

// known answers, use as guide
{"columns": ["smiles.code", "Ratio Ki"],
 "data": [
  ["O=c1ccc(-n2ccnc2)nn1CCCCN1CCN(c2ncccn2)CC1", 1.25],
  ["O=c1ccc(-n2ccc3ccccc32)nn1CCCCN1CCN(c2ncccn2)CC1", 11.1],
  ["O=c1ccc(-n2ccc3ccccc32)nn1CCCCN1CCN(c2cccc(C(F)(F)F)c2)CC1", 1.03],
  ["CC(C)Oc1ccccc1N1CCN(CCCCn2nc(-n3ccc4ccccc43)ccc2=O)CC1", 13.6],
  ["CC(C)Oc1ccccc1N1CCN(CCNC(=O)Cn2nc(-n3ccnc3)ccc2=O)CC1", 8.7],
  ["O=c1ccc(-n2ccnc2)nn1CCCCN1CCN(c2ccc3c(c2)OCCO3)CC1", 3.73],
  ["CC(C)Oc1ccccc1N1CCN(C(=O)CCCn2nc(-n3ccnc3)ccc2=O)CC1", 1.73],
  ["O=c1ccc(-n2ccc3ccccc32)nn1CCCCN1CCN(c2ccc3c(c2)OCCO3)CC1", 44.8]
]}

Field Ratio Ki (entry COc1ccccc1N1CCN(CCNC(=O)Cn2nc(-n3ccnc3)ccc2=O)CC1 ) reads 3

Field Ratio Ki (entry CCOc1ccccc1N1CCN(C(=O)CCCn2nc(-n3ccnc3)ccc2=O)CC1 ) reads 4.57
